inhibition at 0.01 µM values, listed per item
system under test: Androgen Receptor (AR) protein (Homo sapiens, UniProt P10275, T878A)
Construct: endogenous in cells; host or cells: LNCaP
Sequence (P10275 whole entry T878A): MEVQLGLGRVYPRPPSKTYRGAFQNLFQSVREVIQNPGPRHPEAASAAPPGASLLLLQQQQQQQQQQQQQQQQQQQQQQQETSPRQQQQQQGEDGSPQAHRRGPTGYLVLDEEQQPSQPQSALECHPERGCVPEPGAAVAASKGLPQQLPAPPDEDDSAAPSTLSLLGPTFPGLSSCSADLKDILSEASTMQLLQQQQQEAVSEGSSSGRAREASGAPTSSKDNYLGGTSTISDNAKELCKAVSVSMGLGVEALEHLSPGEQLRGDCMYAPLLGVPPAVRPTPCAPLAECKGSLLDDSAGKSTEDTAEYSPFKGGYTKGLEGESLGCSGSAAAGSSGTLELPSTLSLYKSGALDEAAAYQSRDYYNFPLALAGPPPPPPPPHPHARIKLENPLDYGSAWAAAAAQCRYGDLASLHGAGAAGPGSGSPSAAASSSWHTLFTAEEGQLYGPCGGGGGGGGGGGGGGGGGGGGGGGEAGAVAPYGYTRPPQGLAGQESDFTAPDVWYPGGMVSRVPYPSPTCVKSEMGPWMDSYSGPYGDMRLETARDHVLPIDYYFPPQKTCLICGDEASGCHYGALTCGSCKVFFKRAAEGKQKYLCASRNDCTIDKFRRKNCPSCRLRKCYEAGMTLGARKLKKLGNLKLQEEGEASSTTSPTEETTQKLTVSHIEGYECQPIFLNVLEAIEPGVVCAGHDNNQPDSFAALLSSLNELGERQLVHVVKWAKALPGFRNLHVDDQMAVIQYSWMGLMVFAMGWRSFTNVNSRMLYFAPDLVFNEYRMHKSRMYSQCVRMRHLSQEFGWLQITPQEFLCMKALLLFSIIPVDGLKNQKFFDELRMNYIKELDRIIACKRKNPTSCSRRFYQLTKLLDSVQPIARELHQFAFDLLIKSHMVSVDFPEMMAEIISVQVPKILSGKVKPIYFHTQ
Sequence (Q96SW2 whole entry partner): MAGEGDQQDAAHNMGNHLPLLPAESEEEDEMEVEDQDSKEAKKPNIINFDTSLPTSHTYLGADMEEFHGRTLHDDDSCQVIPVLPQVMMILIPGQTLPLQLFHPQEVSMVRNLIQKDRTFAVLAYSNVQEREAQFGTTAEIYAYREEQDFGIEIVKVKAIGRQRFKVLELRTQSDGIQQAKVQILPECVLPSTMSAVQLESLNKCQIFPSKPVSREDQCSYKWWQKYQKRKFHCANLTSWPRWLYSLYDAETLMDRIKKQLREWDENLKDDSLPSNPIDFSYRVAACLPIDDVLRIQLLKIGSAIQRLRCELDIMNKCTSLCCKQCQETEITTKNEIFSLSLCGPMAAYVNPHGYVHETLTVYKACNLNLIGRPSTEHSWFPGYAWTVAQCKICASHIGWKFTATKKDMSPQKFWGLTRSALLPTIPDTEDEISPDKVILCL
test: Androgen Receptor (AR) protein degradation assay in LNCaP cells, western blotting
Format: cell-based
experimental context: 20 h, 0.01 μM compound
# output: bare number, implied unit %

N#Cc1ccc(N2CCC(C(=O)Nc3ccc(N4CCC(CN5CC(CN6CCN(c7ccc8c(c7)C(=O)N(C7CCC(=O)NC7=O)C8=O)CC6)C5)CC4)cn3)CC2)cc1C(F)(F)F (centres unmarked) = 31
N#Cc1ccc(N2CCC(C(=O)Nc3ccc(N4CCC(CN5CC6(C5)CN(c5ccc7c(c5)C(=O)N(C5CCC(=O)NC5=O)C7=O)C6)CC4)cn3)CC2)cc1Cl (centres unmarked) = 46
N#Cc1ccc(N2CCC(C(=O)Nc3ccc(CCC4CCN(CC5CCN(c6ccc7c(c6)C(=O)N(C6CCC(=O)NC6=O)C7=O)CC5)CC4)cn3)CC2)cc1C(F)(F)F (centres unmarked) = 60
N#Cc1ccc(N2CCC(C(=O)Nc3ccc(N4CC(CN5CCC(CN6CCN(c7cc8c(cc7F)C(=O)N(C7CCC(=O)NC7=O)C8=O)CC6)CC5)C4)cn3)CC2)cc1C(F)(F)F (centres unmarked) = 3
N#Cc1ccc(N2CCC(C(=O)Nc3ccc(N4CCC(CCN5CCN(C6CN(c7ccc8c(c7)C(=O)N(C7CCC(=O)NC7=O)C8=O)C6)CC5)CC4)cn3)CC2)cc1C(F)(F)F (centres unmarked) = 70
N#Cc1ccc(N2CCC(C(=O)Nc3ccc(N4CCN(CC5CCN(C(=O)CNc6ccc7c(c6)C(=O)N(C6CCC(=O)NC6=O)C7=O)CC5)CC4)cn3)CC2)cc1C(F)(F)F (centres unmarked) = 78

In one line, give reported inhibition at 0.01 µM of the entry CC1(CN2CCC(COc3ccc(NC(=O)C4CCN(c5ccc(C#N)c(C(F)(F)F)c5)CC4)nc3)CC2)CN(c2ccc3c(c2)C(=O)N(C2CCC(=O)NC2=O)C3=O)C1 (centres unmarked) . 72

In one line, give reported inhibition at 0.01 µM of the entry N#Cc1ccc(N2CCC(C(=O)Nc3ccc(N4CCC(CN5CCC6(CC5)CN(c5ccc7c(c5)C(=O)N(C5CCC(=O)NC5=O)C7=O)C6)CC4)cn3)CC2)cc1Cl (centres unmarked) . 71.5
